# Test description: in vitro
# Run parameters: human
Property measured: CC50 (µM)
Value expressed in µM; do not type the unit.

CCN(CC)CCCC(C)Nc1ccnc2cc(Cl)ccc12 (centres unmarked) [CQ, Chloroquine]: 70

Lab note: measured CC50 of CCNCCCC(C)Nc1ccnc2cc(Cl)ccc12 (centres unmarked) [DECQ, Desethyl-Chloroquine] was 70

====

# Test description: in vitro
# Run parameters: human, CC50, 24 h
Property measured: CC50

Lab note: measured CC50 of CCNCc1cc(Nc2ccnc3cc(Cl)ccc23)ccc1O [DEAQ, Desethyl-Amodiaquine] was > 50 µM

====

# Test description: in vitro
# Run parameters: hamster
Property measured: CC50

Lab note: measured CC50 of CCN(CC)Cc1cc(Nc2ccnc3cc(Cl)ccc23)ccc1O was > 10 µM
